Each recorded value in this set is attributed to ChEMBL document CHEMBL4219215.

# ASSAY SYSTEM: Prostaglandin F2-alpha receptor (Homo sapiens, UniProt P43088)
# Sequence (P43088 whole entry): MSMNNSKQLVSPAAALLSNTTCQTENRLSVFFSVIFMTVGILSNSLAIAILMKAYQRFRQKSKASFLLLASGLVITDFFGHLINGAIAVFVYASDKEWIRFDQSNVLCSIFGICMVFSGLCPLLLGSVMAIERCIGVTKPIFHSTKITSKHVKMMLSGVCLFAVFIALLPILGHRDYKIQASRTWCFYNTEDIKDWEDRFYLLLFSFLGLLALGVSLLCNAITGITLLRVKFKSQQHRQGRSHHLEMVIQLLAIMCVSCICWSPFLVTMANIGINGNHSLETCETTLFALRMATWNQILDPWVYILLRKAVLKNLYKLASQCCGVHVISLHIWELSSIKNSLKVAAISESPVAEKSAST
MEASURED ENDPOINT: IC50

// IC50 lookup, compound = CCOc1c2c(c(OCC)c3ccccc13)C(=O)N(c1ccc(CC(=O)O)c(F)c1)C2 , result: > 10 µM

----------
# PROCEDURE DETAILS: Oral bioavailability in cynomolgus monkey
# Type: ADME, organism-based, Macaca fascicularis
# ASSAY CONDITIONS: in vivo
MEASURED ENDPOINT: bioavailability (%)
One number for each entry, in %.

// bioavailability lookup, molecule = CCOc1c2c(c(OCC)c3ccccc13)C(=O)N(c1ccc(CC(=O)O)c(F)c1)C2 , result: 50

----------
Exercise: state measured Activity for each of the compounds provided.
# System: Rattus norvegicus
# PROCEDURE DETAILS: Analgesic activity in rat model of Freund's complete adjuvant-induced acute inflammatory pain assessed as reversal of FCA-induced hypersensitivity at 3 mg/kg, po relative to untreated control
# Type: functional
Give bare numbers, in %.

See these solved cases before continuing.
- CHEMICAL SMILES: "CCOc1c2c(c(OCC)c3ccccc13)C(=O)N(c1ccc(CC(=O)O)cc1C)C2"
  MEAS VALUE: 19
- CHEMICAL SMILES: "CCOc1c2c(c(OCC)c3ccccc13)C(=O)N(c1ccc(CC(=O)O)cc1Cl)C2"
  MEAS VALUE: 14
- CHEMICAL SMILES: "CCOc1c2c(c(OCC)c3ccccc13)C(=O)N(c1ccc(CC(=O)O)cc1F)C2"
  MEAS VALUE: 5

Next compound, Activity to be filled in.
// Activity lookup, compound = CCOc1c2c(c(OCC)c3ccccc13)C(=O)N(c1ccc(CC(=O)O)c(F)c1)C2 , result: 80

----------
# PROCEDURE DETAILS: Oral bioavailability in rat at 1 mg/kg
# Type: ADME, organism-based
# ASSAY CONDITIONS: in vivo
MEASURED ENDPOINT: bioavailability (%)
Numbers only, in %.

// bioavailability lookup, molecule = CCOc1c2c(c(OCC)c3ccccc13)C(=O)N(c1ccc(CC(=O)O)c(F)c1)C2 , result: 112

----------
# ASSAY SYSTEM: Cytochrome P450 2C9 (Homo sapiens)
# Sequence (P11712 whole entry): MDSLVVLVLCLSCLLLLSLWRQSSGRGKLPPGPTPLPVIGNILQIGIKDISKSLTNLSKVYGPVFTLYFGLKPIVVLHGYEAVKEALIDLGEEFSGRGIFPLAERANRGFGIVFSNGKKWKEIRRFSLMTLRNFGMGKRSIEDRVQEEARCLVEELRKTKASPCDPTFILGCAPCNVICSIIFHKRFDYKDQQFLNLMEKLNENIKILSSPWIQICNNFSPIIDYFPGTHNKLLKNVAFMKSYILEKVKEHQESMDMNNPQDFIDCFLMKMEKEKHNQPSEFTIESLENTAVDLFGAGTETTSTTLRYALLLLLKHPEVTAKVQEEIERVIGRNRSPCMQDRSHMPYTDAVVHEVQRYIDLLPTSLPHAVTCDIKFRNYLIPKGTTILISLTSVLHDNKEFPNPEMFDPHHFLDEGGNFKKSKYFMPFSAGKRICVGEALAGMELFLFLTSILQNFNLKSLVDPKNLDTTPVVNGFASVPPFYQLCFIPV
# PROCEDURE DETAILS: Inhibition of human recombinant CYP2C9
pIC50: −log10 of the molar value.
MEASURED ENDPOINT: pIC50

// pIC50 lookup, molecule = CCOc1c2c(c(OCC)c3ccccc13)C(=O)N(c1ccc(CC(=O)O)cc1)C2=O , result: < 4.00

----------
# ASSAY SYSTEM: Cytochrome P450 1A2 (Homo sapiens, UniProt P05177)
# Sequence (P05177 whole entry): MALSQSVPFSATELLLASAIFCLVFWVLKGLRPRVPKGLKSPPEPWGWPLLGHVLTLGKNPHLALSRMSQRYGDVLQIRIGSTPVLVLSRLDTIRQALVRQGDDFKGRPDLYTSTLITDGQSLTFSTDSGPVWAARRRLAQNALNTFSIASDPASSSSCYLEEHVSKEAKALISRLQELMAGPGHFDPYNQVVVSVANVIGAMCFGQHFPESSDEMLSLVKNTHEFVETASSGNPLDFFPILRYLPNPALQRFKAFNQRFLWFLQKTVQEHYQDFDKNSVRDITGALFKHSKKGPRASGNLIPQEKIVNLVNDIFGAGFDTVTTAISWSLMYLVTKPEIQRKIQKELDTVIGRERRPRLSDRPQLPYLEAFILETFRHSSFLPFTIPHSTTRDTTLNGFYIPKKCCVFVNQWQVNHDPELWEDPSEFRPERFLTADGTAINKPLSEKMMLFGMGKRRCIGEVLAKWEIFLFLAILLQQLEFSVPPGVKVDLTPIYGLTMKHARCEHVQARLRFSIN
# PROCEDURE DETAILS: Inhibition of human recombinant CYP1A2
MEASURED ENDPOINT: pIC50
Give bare numbers, as −log10 of the molar value.

Record for CCOc1c2c(c(OCC)c3ccccc13)C(=O)N(c1ccc(CC(=O)O)cc1)C2=O under target or system Cytochrome P450 1A2 (Homo sapiens, UniProt P05177): pIC50 reported as 4.19

----------
# ASSAY SYSTEM: Cytochrome P450 2C19 (Homo sapiens, UniProt P33261)
# Sequence (P33261 whole entry): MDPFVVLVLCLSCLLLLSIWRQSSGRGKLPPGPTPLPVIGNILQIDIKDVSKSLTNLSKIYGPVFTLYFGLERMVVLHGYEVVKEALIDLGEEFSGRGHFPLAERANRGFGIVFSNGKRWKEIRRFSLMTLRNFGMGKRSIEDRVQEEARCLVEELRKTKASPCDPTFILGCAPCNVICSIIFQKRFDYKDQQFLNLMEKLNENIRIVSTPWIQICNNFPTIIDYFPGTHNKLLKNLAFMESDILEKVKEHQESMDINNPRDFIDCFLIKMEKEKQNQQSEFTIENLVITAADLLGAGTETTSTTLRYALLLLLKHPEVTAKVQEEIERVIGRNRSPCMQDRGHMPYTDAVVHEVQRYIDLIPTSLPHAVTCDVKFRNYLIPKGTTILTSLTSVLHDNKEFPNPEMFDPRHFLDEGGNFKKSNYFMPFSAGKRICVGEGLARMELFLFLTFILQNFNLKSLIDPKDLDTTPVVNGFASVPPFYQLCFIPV
# PROCEDURE DETAILS: Inhibition of human recombinant CYP2C19
pIC50: −log10 of the molar value.
MEASURED ENDPOINT: pIC50

// pIC50 lookup, compound = CCOc1c2c(c(OCC)c3ccccc13)C(=O)N(c1ccc(CC(=O)O)cc1)C2=O , result: < 4.00
